Reference source: patent US20250027068

# targetOrSystem: pooled human IgG
parameterMeasured: Enzyme Activity Endpoint Assay (purified): IgG (ng/µL)
One number for each entry, in ng/µL.

The value of Enzyme Activity Endpoint Assay (purified): IgG measured for the protein PRT-63 (protein) MANQEIRYSEVTPYHVTSVWTKGVTPPANFTQGEDVFHAPYVANQGWYDITKTFNGKDDLLCGAATAGNMLHWWFDQNKEQIKRYLKEHPEKQKINFNGEQMFDVKEAIDTKNHQLDSKLFEYFKEKAFPYLSTKHLGVFPDHVLDMFINGYRLSLTNHGPTPVKEGSKDPRGGIFDDVFTRGDQSKLLTSRHDFKEKNLKEISDLIKKELTEGKALGLSHTYANVRINHVINLWGADFDSNGNLKAIYVTDSDSNASIGMKKYFVGVNSAGKVAISAKEIKEDNIGAQVLGLFTLSTGQDSWNQTN turned out to be 13
